Collected inhibition at 20 µM values appear next to each entry.
biological target: NKCC1 (Homo sapiens, UniProt P55011); construct: endogenous in cells; host or cells: native HEK293 cells; test: NKCC1-mediated K+ influx (83Rb tracer uptake) in native HEK293 cells, hypertonic saline, 100 μM ouabain; assay type: cell-based; conditions: HEK293; 20 μM; no drug = 1000, 20 μM bumetanide = 0; read-out: NKCC1 mediated flux inhibition at 20 μM (%)
Sequence (P55011 whole entry): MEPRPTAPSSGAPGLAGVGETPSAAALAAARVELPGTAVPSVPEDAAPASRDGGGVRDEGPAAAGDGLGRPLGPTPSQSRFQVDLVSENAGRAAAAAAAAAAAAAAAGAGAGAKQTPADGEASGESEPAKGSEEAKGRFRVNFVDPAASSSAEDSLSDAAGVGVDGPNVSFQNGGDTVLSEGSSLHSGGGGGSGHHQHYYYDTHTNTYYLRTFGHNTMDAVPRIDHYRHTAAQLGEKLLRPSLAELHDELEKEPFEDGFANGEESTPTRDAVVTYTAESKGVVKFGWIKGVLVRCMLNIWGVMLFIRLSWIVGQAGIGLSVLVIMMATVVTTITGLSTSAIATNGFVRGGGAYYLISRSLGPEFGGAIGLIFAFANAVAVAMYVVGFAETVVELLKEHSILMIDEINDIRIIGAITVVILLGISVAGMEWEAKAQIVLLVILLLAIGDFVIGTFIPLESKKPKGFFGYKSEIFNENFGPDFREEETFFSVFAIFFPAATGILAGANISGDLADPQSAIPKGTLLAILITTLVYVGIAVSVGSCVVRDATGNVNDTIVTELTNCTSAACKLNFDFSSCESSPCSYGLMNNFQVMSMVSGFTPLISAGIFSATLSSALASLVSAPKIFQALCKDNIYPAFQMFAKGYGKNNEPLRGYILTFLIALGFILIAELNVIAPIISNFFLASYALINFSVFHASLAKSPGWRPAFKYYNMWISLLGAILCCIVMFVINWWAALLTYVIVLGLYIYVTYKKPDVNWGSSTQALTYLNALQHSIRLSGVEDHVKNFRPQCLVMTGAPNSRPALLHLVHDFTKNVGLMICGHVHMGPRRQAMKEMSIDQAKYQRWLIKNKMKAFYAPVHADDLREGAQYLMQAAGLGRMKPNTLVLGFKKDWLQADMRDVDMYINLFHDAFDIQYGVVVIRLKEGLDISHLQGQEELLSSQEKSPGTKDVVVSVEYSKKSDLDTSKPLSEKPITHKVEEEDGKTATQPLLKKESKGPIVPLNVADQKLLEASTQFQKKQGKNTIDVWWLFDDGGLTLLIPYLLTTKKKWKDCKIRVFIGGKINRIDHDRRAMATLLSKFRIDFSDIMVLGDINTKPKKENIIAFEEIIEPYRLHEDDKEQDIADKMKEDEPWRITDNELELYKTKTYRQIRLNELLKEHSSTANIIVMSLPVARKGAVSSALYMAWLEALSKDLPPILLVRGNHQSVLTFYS

INSERT INTO measurements (compound, tgt, quantity_kind, test_result) VALUES
  ('CCCCNc1cc(C(=O)O)cc(S(=N)(=O)NCc2cncnc2)c1Oc1ccccc1 (centres unmarked)', 'NKCC1 (Homo sapiens, UniProt P55011)', 'inhibition at 20 µM', '≥ 75%');

Request: Return reported inhibition at 20 µM; argument: CCCCNc1cc(C(=O)NOC)cc(S(=N)(=O)NC2CCOCC2)c1Oc1ccccc1 (centres unmarked)
Result: 30 to 50%

Request: Return reported inhibition at 20 µM; argument: CCCCNc1cc(C(=O)OC)cc(S(=N)(=O)NCc2cncnc2)c1Oc1ccccc1 (centres unmarked)
Result: 30 to 50%

---

target: NKCC1 (Homo sapiens); construct: endogenous in cells; host or cells: native HEK293 cells; assay: NKCC1-mediated K+ influx (83Rb tracer uptake) in native HEK293 cells, hypertonic saline, 100 μM ouabain; assay type: cell-based; settings: HEK293; 2 μM; no drug = 1000, 20 μM bumetanide = 0; read-out: NKCC1 mediated flux inhibition at 2 μM (%)
Collected inhibition at 2 µM values appear next to each entry.

Solved entries:
INSERT INTO assay_data (compound, tgt, test_result) VALUES
  ('CCCCNc1cc(C(=O)O)cc(S(=N)(=O)Nc2ccc(Cl)cc2)c1Oc1ccccc1 (centres unmarked) [Compound 78]', 'NKCC1 (Homo sapiens)', '50 to 75%'),
  ('CCCCNc1cc(C(=O)OC)cc(S(=N)(=O)NCC2CCCCC2)c1Oc1ccccc1 (centres unmarked) [Compound 12]', 'NKCC1 (Homo sapiens)', '10 to 30%'),
  ('CCCCNc1cc(C(=O)NC2CC2)cc(S(=N)(=O)Nc2ccccc2)c1Oc1ccccc1 (centres unmarked) [Compound 106]', 'NKCC1 (Homo sapiens)', '30 to 50%');

Request: Test system NKCC1 (Homo sapiens); read-out inhibition at 2 µM; what value for CCCCNc1cc(C(=O)NCC(F)(F)F)cc(S(=N)(=O)NCc2cccc(Cl)c2)c1Oc1ccccc1 (centres unmarked) [Compound 119] ?
Result: 10 to 30%

Request: Test system NKCC1 (Homo sapiens); read-out inhibition at 2 µM; what value for CCCCNc1cc(C(=O)O)cc(S(=N)(=O)Nc2ncccn2)c1Oc1ccccc1 (centres unmarked) [Compound 76] ?
Result: 10 to 30%

Request: Test system NKCC1 (Homo sapiens); read-out inhibition at 2 µM; what value for CCCCNc1cc(C(=O)O)cc(S(=O)(=O)Nc2ccccc2)c1Oc1ccccc1 [Compound 125] ?
Result: ≥ 75%

Request: Test system NKCC1 (Homo sapiens); read-out inhibition at 2 µM; what value for CCCCNc1cc(C(=O)OC)cc(S(=N)(=O)Nc2cccc(Cl)c2)c1Oc1ccccc1 (centres unmarked) [Compound 22] ?
Result: 30 to 50%

Request: Test system NKCC1 (Homo sapiens); read-out inhibition at 2 µM; what value for CCCCNc1cc(C(=O)O)cc(S(=N)(=O)Nc2ccccn2)c1Oc1ccccc1 (centres unmarked) [Compound 89] ?
Result: 30 to 50%
